# procedure_details: chemical genetic growth profiling, strain panel (AID 1159580);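 note: tested at 20 µM; growth read once vehicle control cultures reached saturation at 30 °C; 1 = growth at the plate median or of vehicle wells; lower values mean less growth of the strain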
# measurement_conditions: S. cerevisiae deletion strains, growth OD, locus YPR119W, strain clb2, active compounds read low
Hit rate of the full screen: of about 5,500 compounds, about 2,000 (36%) were called active. Roughly 18% stayed inconclusive and do not appear here. The list shows a part of the results.
The reader will find reported normalized growth values listed item by item below.
Just the number, please.

Worked cases, answers included:
CC1OC(O[C@H]2/C=C/C=C/C=C/C=C/C=C/C=C/C=C/[C@H](C)[C@@H](O)[C@@H](C)[C@H](C)OC(=O)CC(O)CC(O)CCC(O)C(O)CC(O)C[C@]3(O)C[C@H](O)C(C(=O)O)C(C2)O3)C(O)[C@H](N)C1O (stereo partly specified) | 1.01
CC(C)=CC1C(C(=O)OCc2cccc(Oc3ccccc3)c2)C1(C)C (stereo unspecified) | 0.988
NC1(C(=O)O)CCC1 | 0.999
CN(C)C(=O)Oc1ccc[n+](C)c1 | 1.01
Cc1nnc(NS(=O)(=O)c2ccc(N)cc2)s1 | 0.989
C[C@@H]1CC[C@H]2C(C)(C)C3CC12CC[C@@]3(C)O (stereo partly specified) | 1
NCCCCNCCCN | 0.979
CC(C)c1nc(N(C)S(C)(=O)=O)nc(-c2ccc(F)cc2)c1/C=C/[C@@H](O)C[C@@H](O)CC(=O)O | 0.998

Consider the record given below.
Please report the measured normalized growth for CCCCCCCCCCCCCC(=O)OC1C(C)C2(O)C(C=C(CO)CC3(O)C(=O)C(C)=CC32)C2C(C)(C)C12OC(C)=O (stereo unspecified)
0.993
